pIC50: −log10 of the molar value.
Data export: pIC50 values recorded with Serine/threonine-protein kinase pim-2 (Homo sapiens, UniProt Q9P1W9).
Sequence (Q9P1W9 whole entry): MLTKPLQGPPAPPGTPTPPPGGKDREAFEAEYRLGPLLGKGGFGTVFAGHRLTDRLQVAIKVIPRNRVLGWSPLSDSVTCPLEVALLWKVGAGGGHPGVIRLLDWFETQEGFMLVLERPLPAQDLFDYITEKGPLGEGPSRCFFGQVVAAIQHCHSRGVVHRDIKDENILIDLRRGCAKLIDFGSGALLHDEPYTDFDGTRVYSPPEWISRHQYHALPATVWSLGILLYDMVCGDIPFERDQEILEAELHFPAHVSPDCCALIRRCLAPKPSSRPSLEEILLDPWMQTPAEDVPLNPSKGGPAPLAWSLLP
metric-name: pIC50

N[C@H]1CC[C@@H](Nc2cc(Br)cc3cc(C(=O)O)oc23)CC1 ... 8.40

a. O=C(O)c1cc2cc(Br)cc(N[C@H]3CC[C@@H](O)CC3)c2o1
b. O=C(O)c1cc2cc(C(F)(F)F)ccc2o1
Param pair: a , b . Output: the one whose pIC50 is numerically greater. Please respond with the label that marks your chosen entry. a

----------
Quick note: these are IC50 numbers for system: Serine/threonine-protein kinase pim-1 (Homo sapiens, UniProt P11309)
Sequence (P11309 whole entry): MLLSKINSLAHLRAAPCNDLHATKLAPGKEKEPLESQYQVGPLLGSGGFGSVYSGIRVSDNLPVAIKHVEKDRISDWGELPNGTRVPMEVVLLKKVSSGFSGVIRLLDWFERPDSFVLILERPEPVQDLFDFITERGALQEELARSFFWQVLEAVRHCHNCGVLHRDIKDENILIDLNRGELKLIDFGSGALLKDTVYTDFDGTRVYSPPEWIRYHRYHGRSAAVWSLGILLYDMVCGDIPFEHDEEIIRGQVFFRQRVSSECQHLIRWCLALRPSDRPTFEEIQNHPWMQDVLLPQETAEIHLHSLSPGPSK
metric-name: IC50 (nM)

Some solved cases for reference:
N[C@H]1CC[C@@H](Nc2cncc(-c3ccc4oc(C(=O)O)cc4c3)n2)CC1 ... 200
O=C(O)c1cc2cc(OC(F)(F)F)ccc2o1 ... 6100

I. O=C(O)c1cc2cc(Br)cc(OCC3CCCNC3)c2o1 (stereo not given)
II. O=C(O)c1cc2cc(Br)cc(N[C@H]3CC[C@H](O)CC3)c2o1
III. O=C(O)c1cc2cc(Br)cc(C(=O)NC3CCNCC3)c2o1
IV. O=C(O)c1cc2cc(Br)cc(NC(=O)C3CCNCC3)c2o1
List the 4 entries from lowest IC50 to highest IC50 value. Write the labels in rank order as requested. I, IV, III, II
(I: 71 nM, IV: 150 nM, III: 980 nM, II: 2400 nM)

----------
pIC50: −log10 of the molar value.
These records show pIC50 for Serine/threonine-protein kinase pim-1 (Homo sapiens).
metric-name: pIC50

O=C(CC1CCNCC1)Nc1cc(Br)cc2cc(C(=O)O)oc12 ... 7.26

I. NC[C@H]1CC[C@H](Nc2cncc(-c3ccc4oc(C(=O)O)cc4c3)n2)CC1
II. O=C(O)c1cc2cc(Br)cc(C(=O)NCC3CCNCC3)c2o1
III. O=C(O)c1cc2cc(-c3cncc(NC4CNC4)n3)ccc2o1
Provide the items ranked by increasing pIC50. Record the ranking as a list of labels in the requested order. II, III, I

Just for reference, ChEMBL document CHEMBL1781944 is where these values come from.
